Target: T1, O2-bN
T1 chain: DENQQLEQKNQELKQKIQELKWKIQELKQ
Assay: two-hybrid library CCNG1;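 further: natural log of median RNA to DNA barcode read ratio; higher means stronger binding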
I'd appreciate it if you could supply interaction score values for the items below.
Hey, just send me the number, nothing else.

Query: // returns reported interaction score for input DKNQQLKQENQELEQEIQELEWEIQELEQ [O1-bN]
Reply: 2

Query: // returns reported interaction score for input DKNQQLKQKIQELKQKNQELKWEIQELEQ [O13-bN]
Reply: -1.79

Query: // returns reported interaction score for input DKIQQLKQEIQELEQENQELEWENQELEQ [O11-bN]
Reply: -0.23

Query: // returns reported interaction score for input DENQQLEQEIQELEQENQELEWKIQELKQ [O14-bN]
Reply: 0.0465

Query: // returns reported interaction score for input DKNQELEKKNEELEREIWELEKKIQELKR [4H3462-bH]
Reply: 1.13

Query: // returns reported interaction score for input DEIQQLEQENQELEQKIQELKWENQELEQ [O15-bN]
Reply: -1.5

Query: // returns reported interaction score for input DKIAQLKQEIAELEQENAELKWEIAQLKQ [4H2586-bA]
Reply: -0.327
